Experiment: Bioavailability in dog at 0.5 mg/kg, iv and 2 mg/kg, po
Type: ADME, organism-based, Canis lupus familiaris
Conditions: in vivo
Metric: bioavailability (%)
One number for each entry, in %.

*Q* Given "O=C(O)CCNC(=O)c1ccc(Cn2nc(-c3cc(Cl)cc(Cl)c3)cc2-c2ccc(OC(F)(F)F)cc2)cc1" , respond with its bioavailability.
*A* 46

====

Experiment: Plasma clearance in rhesus monkey at 0.5 mg/kg, iv and 2 mg/kg, po
Assay type: ADME, organism-based, Macaca mulatta
Metric: clearance (mL/min/kg)
Numbers only, in mL/min/kg.

*Q* Look up and state reported clearance for "O=C(O)CCNC(=O)c1ccc(Cn2nc(-c3cc(Cl)cc(Cl)c3)cc2-c2ccc(OC(F)(F)F)cc2)cc1"
*A* 0.68
